# TARGET: Histone deacetylase 4 (Homo sapiens, UniProt P56524)
# Sequence (P56524 whole entry): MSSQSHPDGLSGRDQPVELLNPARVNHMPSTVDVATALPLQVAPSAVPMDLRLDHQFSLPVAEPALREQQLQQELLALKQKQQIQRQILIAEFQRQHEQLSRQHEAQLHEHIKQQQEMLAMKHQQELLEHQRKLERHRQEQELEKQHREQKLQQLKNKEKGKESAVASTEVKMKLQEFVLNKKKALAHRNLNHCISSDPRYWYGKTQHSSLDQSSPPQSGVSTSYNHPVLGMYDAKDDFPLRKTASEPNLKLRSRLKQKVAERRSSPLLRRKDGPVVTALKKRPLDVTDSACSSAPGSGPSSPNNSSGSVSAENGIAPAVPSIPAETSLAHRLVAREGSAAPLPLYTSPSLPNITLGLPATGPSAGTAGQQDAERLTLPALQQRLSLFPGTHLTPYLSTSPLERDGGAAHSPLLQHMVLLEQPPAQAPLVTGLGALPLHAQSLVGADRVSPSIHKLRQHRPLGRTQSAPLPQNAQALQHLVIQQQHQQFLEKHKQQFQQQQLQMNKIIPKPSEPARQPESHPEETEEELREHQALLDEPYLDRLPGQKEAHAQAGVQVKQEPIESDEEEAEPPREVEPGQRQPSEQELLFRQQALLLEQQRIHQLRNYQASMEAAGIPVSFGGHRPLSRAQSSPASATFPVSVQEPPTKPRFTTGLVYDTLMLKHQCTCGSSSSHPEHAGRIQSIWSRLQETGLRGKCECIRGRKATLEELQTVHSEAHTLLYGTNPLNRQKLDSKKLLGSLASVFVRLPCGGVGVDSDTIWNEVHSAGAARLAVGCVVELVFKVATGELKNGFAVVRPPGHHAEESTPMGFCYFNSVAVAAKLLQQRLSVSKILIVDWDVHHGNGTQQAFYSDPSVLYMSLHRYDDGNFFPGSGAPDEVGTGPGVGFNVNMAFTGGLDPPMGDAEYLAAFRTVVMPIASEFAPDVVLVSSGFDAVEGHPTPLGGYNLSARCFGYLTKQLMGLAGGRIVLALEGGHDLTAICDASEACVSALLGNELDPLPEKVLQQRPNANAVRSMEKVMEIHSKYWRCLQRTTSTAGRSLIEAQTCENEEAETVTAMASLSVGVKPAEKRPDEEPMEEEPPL
pIC50: −log10 of the molar value.
MEASUREMENT_NAME: pIC50

COMPOUND_STRUCTURE	MEASUREMENT
Cc1cnc(Nc2ccc(OCCCCCCC(=O)NO)c(F)c2)nc1Nc1cccc(S(=O)(=O)NC(C)(C)C)c1	< 5.00

---

# EXPERIMENTAL_DETAILS: in vivo
# CONDITION_NOTES: Sprague-Dawley, rat, po, 15 mg/kg

COMPOUND_STRUCTURE	bioavailability at 24 h, %
Cc1cnc(Nc2ccc(OCCCCCCC(=O)NO)c(F)c2)nc1Nc1cccc(S(=O)(=O)NC(C)(C)C)c1	21.6
Cc1cnc(Nc2ccc(OCCCCCCC(=O)NO)cc2)nc1Nc1cccc(S(=O)(=O)NC(C)(C)C)c1	22.7

Origin of measurements: ChEMBL document CHEMBL5380863
